biological target: hnRNPA1 (human, UniProt P09651 1-372); assay: bulk FRET
Sequence (P09651 whole entry): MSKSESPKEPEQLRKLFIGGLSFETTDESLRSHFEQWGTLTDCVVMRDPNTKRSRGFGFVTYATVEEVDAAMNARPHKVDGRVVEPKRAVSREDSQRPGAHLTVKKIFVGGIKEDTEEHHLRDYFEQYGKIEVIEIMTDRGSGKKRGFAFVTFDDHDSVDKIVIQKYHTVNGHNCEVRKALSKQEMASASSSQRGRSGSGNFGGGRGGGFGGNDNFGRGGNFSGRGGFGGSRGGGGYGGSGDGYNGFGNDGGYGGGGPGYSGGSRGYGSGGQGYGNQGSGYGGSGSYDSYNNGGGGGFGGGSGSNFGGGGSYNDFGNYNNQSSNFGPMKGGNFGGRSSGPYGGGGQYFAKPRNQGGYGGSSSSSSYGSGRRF
assay readout: Kd (nM)
Use nM as the unit, but write only the number.

What Kd value was documented for this binder, TTAGGGTTAGGGTTA (ssDNA) [h-tel-15(FRET)] ?
73.5
